B1: NELF-E aptamer (parent)
chain: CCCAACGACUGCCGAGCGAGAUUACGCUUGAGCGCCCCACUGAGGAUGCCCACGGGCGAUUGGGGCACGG

variants of: B1; assay: HiTS-RAP; conditions: with NELF-E (Drosophila)
Listed here: items and their measured Kd.
Note: state the figure and append the unit.

{"MUTANT LABEL": "C17G C38U", "Kd": "7.29 nM"}
{"MUTANT LABEL": "U10C A67U", "Kd": "5.45 nM"}
{"MUTANT LABEL": "A4G C40G", "Kd": "6.29 nM"}
{"MUTANT LABEL": "A4U A5U", "Kd": "4.82 nM"}
{"MUTANT LABEL": "G7U U41C", "Kd": "91.2 nM"}

INPUT: Any idea what Kd was measured for U28A U29G ?
OUTPUT: 4.82 nM

INPUT: Follow-up entry: U10G C66G
OUTPUT: 4.43 nM

INPUT: Follow-up entry: A4G U10C
OUTPUT: 5.06 nM

INPUT: Follow-up entry: U41A G62A
OUTPUT: 102 nM

INPUT: Follow-up entry: A5U G16U
OUTPUT: 6.86 nM

INPUT: Follow-up entry: U10G C50A
OUTPUT: 16.6 nM

INPUT: Follow-up entry: C13G U41A
OUTPUT: 83.4 nM

INPUT: Follow-up entry: A4U C17G
OUTPUT: 5.58 nM

INPUT: Follow-up entry: U10G C66U
OUTPUT: 4.66 nM

INPUT: Follow-up entry: G14U A21U
OUTPUT: 6.73 nM
